TEST PROTOCOL: Cytotoxicity against human RCC4 cells after 4 days by XTT assay
Type: functional, cell-based
CONDITION PARAMETERS: RCC4, 96 h
pIC50: −log10 of the molar value.

{"SMILES": "Cc1cccc(Nc2nc(-c3ccncc3)cs2)c1", "pIC50": 5.68}
{"SMILES": "Cc1cccc(Nc2nc(-c3ccnc(-c4cn(CCOCCOCCOCCOCCOCCOCCN)nn4)c3)cs2)c1", "pIC50": "< 4.40"}
{"SMILES": "Cc1cccc(S(=O)(=O)NCc2ccc(C(=O)Nc3cccnc3)cc2)c1", "pIC50": "> 6.00"}
{"SMILES": "NCCOCCOCCOCCOCCOCCOCCCc1ccc(S(=O)(=O)NCc2ccc(C(=O)Nc3ccccc3)cc2)cc1", "pIC50": "< 4.40"}
{"SMILES": "COc1ccc(S(=O)(=O)NCc2ccc(C(=O)Nc3cccnc3)cc2)cc1OC", "pIC50": "> 6.00"}
{"SMILES": "CCN(c1cccc(C)c1)c1nc(-c2ccncc2-c2cn(CCOCCOCCOCCOCCOCCOCCN)nn2)cs1", "pIC50": "< 4.40"}
{"SMILES": "NCCOCCOCCOCCOCCOCCOCC#Cc1ccc(S(=O)(=O)NCc2ccc(C(=O)Nc3cccnc3)cc2)cc1", "pIC50": 5.24}
{"SMILES": "NCCOCCOCCOCCOCCOCCOCCCc1ccc(S(=O)(=O)NCc2ccc(C(=O)Nc3cccnc3)cc2)cc1", "pIC50": 5.10}
{"SMILES": "Cl.O=C(Nc1cccnc1)c1ccc(CNS(=O)(=O)c2ccc(CN3CCOCC3)cc2)cc1", "pIC50": "> 6.00"}
{"SMILES": "CC(C)(C)c1ccc(S(=O)(=O)NCc2ccc(C(=O)Nc3cccnc3)cc2)cc1", "pIC50": 6.80}
{"SMILES": "CCN(c1cccc(C)c1)c1nc(-c2ccnc(-c3cn(CCOCCOCCOCCOCCOCCOCCN)nn3)c2)cs1", "pIC50": "< 4.40"}
